- Assay Target: Ubiquitin carboxyl-terminal hydrolase 1 (Homo sapiens)
- Assay Explanation: Inhibitors of USP1/UAF1: Pilot qHTS (AID 504865); note: nearly all actives have a fitted effect of over 35% in size
- Condition Description: purified USP1/UAF1, Ub-rhodamine cleavage fluorescence; series mostly up to 114 µM
Records with an inconclusive call do not appear. Active and inactive are the calls of the source. Calls come from the whole dose curve; as a rule, active = well fitted inhibition curve with a large enough effect; inconclusive = small, poorly fitted or top-dose-only effect; inactive = flat fitted curve, though single readings scatter.
The reply should name one outcome from Yes (active), No (inactive)

Compound	Label
COc1nccc(-c2c(-c3ccc(F)cc3)ncn2C2CCC(O)CC2)n1 (configuration not stated)	No

Prompt: State the result this test recorded for COc1ccnc(CS(=O)c2nc3ccc(OC(F)F)cc3[nH]2)c1OC (configuration not stated) .
Completion: No

Prompt: State the result this test recorded for "C[C@H]1O[C@@H](n2cc(F)c(=O)[nH]c2=O)[C@H](O)[C@H]1O" .
Completion: No

Prompt: State the result this test recorded for "Nc1ccn([C@@H]2O[C@H](CO)[C@@H](O)[C@H]2O)c(=O)n1" .
Completion: No

Prompt: State the result this test recorded for Cc1cc2nc3c(=O)[nH]c(=O)nc-3n(CC(O)C(O)C(O)CO)c2cc1C (configuration not stated) .
Completion: Yes

Prompt: State the result this test recorded for "CS(=O)(=O)c1ccc(C2=C(c3ccccc3)C(=O)OC2)cc1" .
Completion: No

Prompt: State the result this test recorded for "NS(=O)(=O)c1cc(Cl)c(Cl)c(S(N)(=O)=O)c1" .
Completion: No
